ASSAY_SYSTEM: T1, recombinant human IL-23 (human, UniProt Q9NPF7 20-189; P29460 23-328)
T1 sequence 1: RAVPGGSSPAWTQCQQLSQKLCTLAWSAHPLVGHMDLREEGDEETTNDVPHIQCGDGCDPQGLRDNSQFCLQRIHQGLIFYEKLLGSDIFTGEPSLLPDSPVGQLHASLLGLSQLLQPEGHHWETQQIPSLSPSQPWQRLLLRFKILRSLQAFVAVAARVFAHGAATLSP
T1 sequence 2: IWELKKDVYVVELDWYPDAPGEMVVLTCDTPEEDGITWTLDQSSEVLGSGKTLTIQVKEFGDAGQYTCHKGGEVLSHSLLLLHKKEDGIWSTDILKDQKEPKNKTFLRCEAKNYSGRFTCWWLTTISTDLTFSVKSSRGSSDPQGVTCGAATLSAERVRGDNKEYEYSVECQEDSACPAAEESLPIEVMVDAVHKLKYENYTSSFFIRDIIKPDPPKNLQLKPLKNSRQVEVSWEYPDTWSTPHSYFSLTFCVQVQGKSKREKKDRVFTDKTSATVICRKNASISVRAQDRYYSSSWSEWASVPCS
ASSAY_EXPLANATION: cell-based or functional assay
Each entry below carries its reported IC50 (pM), STAT-luciferase assay.
Report the value in pM with no unit label.

| BINDER | REPORTED |
| --- | --- |
| Antibody M (antibody, V domains shown) VH: EVQLVESGGGLVQPGGSLRLSCAASGFTFSSYSMNWVRQAPGKGLEWVSYISSRSSTIYIADSVKGRFTISRDNAKNSLYLQMNSLRDEDTAVYYCARRIAAAGGFHYYYALDVWGQGTTVTVSS VL: QPVLTQPPSASASLGASVTLTCTLNSGYSDYKVDWYQQRPGKGPRFVMRVGTGGIVGSKGDGIPDRFSVLGSGLNRYLTIKNIQEEDESDYHCGADHGSGSNFVYVFGTGTKVTVL | 40 |

I have this binder here, Antibody N (antibody, V domains shown) VH: EVQLVESGGGLVQPGGSLRLSCAASGFTFSTYSMNWVRQAPGKGLEWVSYISSSSSTRYHADSVKGRFTISRDNAKNSLYLQMNSLRDEDTAVYYCARRIAAAGPWGYYYAMDVWGQGTTVTVSS VL: QPVLTQPPSASASLGASVTLTCTLSSGYSDYKVDWYQQRPGKGPRFVMRVGTGGIVGSKGEGIPDRFSVLGSGLNRYLTIKNIQEEDESDYHCGADHGSGNNFVYVFGTGTKVTVL , and I need its recorded IC50 (pM), STAT-luciferase assay.
145

IC50 (pM), STAT-luciferase assay for Antibody C (antibody, V domains shown, also called VH10/VL10) VH: QVQLQESGPGLVKPSQTLSLTCTVSGGSINSGGYYWSWIRQHPGKGLEWIGYIYYSGSSYYNPSLKSRVTISVDTSQNQFSLKLSSVTAADTAVYYCARDRGHYYGMDVWGQGTTVTVSS VL: DIQMTQSPSSVSASVGDRVTITCRASQGSSSWFAWYQQKPGKAPKLLIYAASSLQSGVPSRFSGSGSGTDFTLTISSLQPEDFATYYCQQANSFPFTFGPGTKVDIK ?
211

# input binder: Antibody B (antibody, V domains shown, also called VH9/VL9) VH: QVQLQESGPGLVKPSQTLSLTCTVSGGSISSGGYYWSWIRQHPGKGLEWIGHIHYSGNTYYNPSLKSRVTISVDTSKNQFSLKLSSVTAADTAVYYCAKNRGFYYGMDVWGQGTTVTVSS VL: DIQMTQSPSSVSASVGDRVTITCRASQVISSWLAWYQQKPGKAPSLLIYAASSLQSGVPSRFSGSVSGTDFTLTISSLQPEDFATYYCQQANSFPFTFGPGTKVDFK ; wanted: its IC50 (pM), STAT-luciferase assay
100

Quick one: IC50 (pM), STAT-luciferase assay for Antibody A (antibody, V domains shown) VH: QVQLQESGPGLVKPSQTLSLTCTVSGGSISSGGYYWSWIRQHPGKGLEWIGYIYYSGSTYYNPSLKSRVTMSVDTSKNQFSLKLSSVTAADTAVYYCAKNRGFYYGMDVWGQGTTVTVSS VL: DIQLTQSPSSVSASVGDRVTITCRASQVISSWFAWYQQKPGKAPNLLIYAASSLQSGVPSRFSGSGSGTDFTLTISSLQPADFATYFCQQANSFPFTFGPGTKVDVK ?
190

Field request: IC50 (pM), STAT-luciferase assay | item: Antibody H (antibody, V domains shown) VH: QVQLQESGPGLVKPSQTLSLTCTVSGGSISSGGYYWTWIRQHPGKGLEWIGYIYYSGNTYYNPSLKSRITISVDTSKNQFSLSLSSVTAADTAVYYCARNRGYYYGMDVWGQGTTVTVSS VL: DIQMTQSPSSVSASVGDRVTITCRASQGFSGWLAWYQQKPGKAPKLLIYAASSLQSGVPSRFSGSGSGTDFTLTISSLQPEDFATYYCQQANSFPFTFGPGTKVDIK
253

Query: IC50 (pM), STAT-luciferase assay; subject: Antibody K (antibody, V domains shown) VH: EVQLVESGGGLVQPGGSLRLSCVVSGFTFSSFSMNWVRQAPGKGLEWVSYISSRSSTIYYADSVKGRFTISRDNAKNSLYLQMNSLRDEDTAVYYCARRIAAAGPWGYYYAMDVWGQGTTVTVSS VL: QPELTQPPSASASLGASVTLTCTLSSGYSDYKVDWYQLRPGKGPRFVMRVGTGGTVGSKGEGIPDRFSVLGSGLNRSLTIKNIQEEDESDYHCGADHGSGSNFVYVFGTGTKVTVL
43

Please report the recorded IC50 (pM), STAT-luciferase assay for Antibody L (antibody, V domains shown, also called VH4/VL4) VH: QVQLVESGGGVVQPGRSLRLSCAASGFTFSSYAMHWVRQAPGKGLEWLSVISHDGSIKYYADSVKGRFTISRDNSKNTLYLQMNSLRAEDTAVYYCARERTTLSGSYFDYWGQGTLVTVSS VL: QAVLTQPSSLSASPGASASLTCTLRSGINVGTYRIYWYQQKPGSPPQYLLRYKSDSDKQQGSGVPSRFSGSKDASANAGILLISGLQSEDEADYYCMIWHSSASVFGGGTKLTVL .
23

// IC50 (pM), STAT-luciferase assay lookup, key: Antibody G (antibody, V domains shown, also called VH12/VL12) VH: QVQLQESGPRLVKPSETLSLTCTVSGDSISSYFWSWIRQPPGKGLEWLGYIYYSGSTNYNPSLKSRVTISIDTSKNQFSLKLSSVTAADTAVYYCTRDRGSYYGSDYWGQGTLVTVSS VL: DIQMTQSPSSVSASVGDRVTITCRAGQVISSWLAWYQQKPGKAPKLLIYAASSLQSGVPSRFSGSGSGTDFTLTISSLQPDDFATYYCQQATSFPLTFGGGTKVEIK
296

Requested read-out: IC50 (pM), STAT-luciferase assay. Entry: Antibody I (antibody, V domains shown) VH: QVQLQESGPGLVKPSETLSLTCTVSGGSISTYYWSWIRQPAGKGLEWIGLIYTSGSTNYNPSLKSRVTMSLDTSKNQFSLRLTSVTAADTAVYYCARDRGYYYGVDVWGQGTTVTVSS VL: DIQLTPSPSSVSASVGDRVTITCRASQGIAGWLAWYQQKPGKAPKLLIYAASSLQSGVPSRFSGSGSGTDFTLTISSLQPEDFATYYCQQADSFPPTFGGGTKVEIK
338

Would you kindly share the measured IC50 (pM), STAT-luciferase assay for Antibody J (antibody, V domains shown) VH: QVQLVESGGGVVQPGRSLRLSCAASGFTFSSYGMHWVRQAPGKGLEWVAVISFDGSLKYYADSVKGRFTISRDNSKNTLYLQMNSLRAEDTAVYYCARERTTLSGSYFDYWGQGTLVTVSS VL: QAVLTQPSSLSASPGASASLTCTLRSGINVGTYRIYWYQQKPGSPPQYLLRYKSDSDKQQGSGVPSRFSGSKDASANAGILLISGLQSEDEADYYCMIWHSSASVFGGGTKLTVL ?
36

The values you see were collected from patent US20200181255A1.
